The measured values listed here are drawn from the supplement of paper PMC12494721.

- System: Escherichia coli IAI1
- TEST NAME: fold change of Putrescine concentration vs plate DMSO controls (fold change (ratio)); higher = more amine produced, active = hit call of the paper (significant change in both replicates, either direction)
- CONDITION: 20 µM; incubation time: 27 h, anaerobic, 37 °C
EXPERIMENTAL READOUT: fold change of Putrescine concentration

Below are worked cases with known answers.
CN[C@@H]1[C@@H](O)[C@@H](O[C@@H]2[C@@H](O)[C@H](O[C@H]3O[C@H](CN)CC[C@H]3N)[C@@H](N)C[C@H]2N)OC[C@]1(C)O.CN[C@@H]1[C@@H](O)[C@@H](O[C@@H]2[C@@H](O)[C@H](O[C@H]3O[C@H]([C@@H](C)N)CC[C@H]3N)[C@@H](N)C[C@H]2N)OC[C@]1(C)O.CN[C@@H]1[C@@H](O)[C@@H](O[C@@H]2[C@@H](O)[C@H](O[C@H]3O[C@H]([C@@H](C)NC)CC[C@H]3N)[C@@H](N)C[C@H]2N)OC[C@]1(C)O [Gentamicine sulfate]: 1.02 (inactive)
CC1(C)C(C=C(Cl)Cl)C1C(=O)OC(C#N)c1ccc(F)c(Oc2ccccc2)c1 (mixture of isomers): 0.971 (inactive)

Task: If you can, please state the reported fold change of Putrescine concentration value of `Nc1c([N+](=O)[O-])ccc(Oc2ccccc2)c1Cl` .
Output: 0.973 (inactive)

###

- Test system: Ruminococcus gnavus DSM 108212
- TEST NAME: fold change of Tryptamine concentration vs plate DMSO controls (fold change (ratio)); higher = more amine produced, active = hit call of the paper (significant change in both replicates, either direction)
- CONDITION: 20 µM; incubation time: 27 h, anaerobic, 37 °C
Where a name gives a salt, the structure may show the parent alone.
EXPERIMENTAL READOUT: fold change of Tryptamine concentration
Answer with a bare number; do not write a unit.

Below: 3 compounds and their reported fold change of Tryptamine concentration.
CC(C)OC(=O)Nc1cccc(Cl)c1: 1.02
CN1[C@@H]2C[C@@H](OC(=O)[C@H](CO)c3ccccc3)C[C@H]1[C@@H]1O[C@@H]12 [Scopolamine hydrochloride]: 1.08
CCNc1nc(Cl)nc(NC(C)C)n1: 1.06

Task: What fold change of Tryptamine concentration value was documented for this compound, `CCCCCCCCCCCCN=C(N)N` ?
Output: 0.896

###

- System: Klebsiella aerogenes DSM 30053
- TEST NAME: fold change of Putrescine concentration vs plate DMSO controls (fold change (ratio)); higher = more amine produced, active = hit call of the paper (significant change in both replicates, either direction)
- CONDITION: 20 µM; incubation time: 27 h, anaerobic, 37 °C
// reported fold change of Putrescine concentration per item
Provide a numeric answer; units are not to be included.

Some compounds with known fold change of Putrescine concentration results, for comparison:
CN[C@@H]1[C@@H](O)[C@@H](O[C@@H]2[C@@H](O)[C@H](O[C@H]3O[C@H](CN)CC[C@H]3N)[C@@H](N)C[C@H]2N)OC[C@]1(C)O.CN[C@@H]1[C@@H](O)[C@@H](O[C@@H]2[C@@H](O)[C@H](O[C@H]3O[C@H]([C@@H](C)N)CC[C@H]3N)[C@@H](N)C[C@H]2N)OC[C@]1(C)O.CN[C@@H]1[C@@H](O)[C@@H](O[C@@H]2[C@@H](O)[C@H](O[C@H]3O[C@H]([C@@H](C)NC)CC[C@H]3N)[C@@H](N)C[C@H]2N)OC[C@]1(C)O [Gentamicine sulfate]: 1.02
Cc1cccc(C)c1NC(=O)CN1CCCC1=O [Nefiracetam]: 1.01
COP(=S)(OC)Oc1ccc(SC)c(C)c1: 0.989

Task: # query: fold change of Putrescine concentration of entry CC(=O)O[C@H]1C[C@@H]2CC[C@@H]3[C@H](CC[C@@]4(C)[C@H]3C[C@H]([N+]3(C)CCCCC3)[C@@H]4OC(C)=O)[C@@]2(C)C[C@@H]1[N+]1(C)CCCCC1 [Pancuronium bromide]
Output: 0.983

Task: Item under review: Oc1ccc(C(c2ccc(O)cc2)(C(F)(F)F)C(F)(F)F)cc1 [Bisphenol AF] . Reported fold change of Putrescine concentration?
Output: 0.989

Task: Consider the compound `N#Cc1cc(Br)c(O)c(Br)c1` and give its measured fold change of Putrescine concentration.
Output: 0.978

Task: # lookup: fold change of Putrescine concentration of `CN(C)C(CSS(=O)(=O)O)CSS(=O)(=O)O`
Output: 0.999

Task: fold change of Putrescine concentration lookup needed for `CCOC(=O)OC1=C(c2cc(C)ccc2C)C(=O)N[C@]12CC[C@@H](OC)CC2` , thanks.
Output: 1

###

- Tested on: Ruminococcus gnavus DSM 108212
- TEST NAME: fold change of Tryptamine concentration vs plate DMSO controls (fold change (ratio)); higher = more amine produced, active = hit call of the paper (significant change in both replicates, either direction)
- CONDITION: 20 µM; incubation time: 27 h, anaerobic, 37 °C
Counter-ions that a name gives are not always drawn.
Recorded fold change of Tryptamine concentration by entry
Keep the answer to the number alone.

C[C@@H]1CN([C@H]2CC[C@](C#N)(c3ccc(F)cc3)CC2)CC[C@]1(C(=O)O)c1ccccc1 [Levocabastine hydrochloride]: 1
O=C1c2ccccc2C(=O)N1SC(Cl)(Cl)Cl: 0.999
CCC(CC)Nc1c([N+](=O)[O-])cc(C)c(C)c1[N+](=O)[O-]: 0.998
CCc1cnc(C2=NC(C)(C(C)C)C(=O)N2)c(C(=O)O)c1 (centres undefined): 1.01
OC(Cn1cncn1)(c1ccc(F)cc1)c1ccccc1F (centres undefined): 0.984

Task: // returns reported fold change of Tryptamine concentration for input `Nc1ccncc1`
Output: 1

Task: Could you share which fold change of Tryptamine concentration value was measured for O=C(O[C@H]1C[N+]2(CCCOc3ccccc3)CCC1CC2)C(O)(c1cccs1)c1cccs1 [Aclidinium bromide] ?
Output: 0.985

Task: Give the measured fold change of Tryptamine concentration of `COP(=S)(OC)SCN1C(=O)c2ccccc2C1=O` .
Output: 1.01

Task: Returns the measured fold change of Tryptamine concentration for the input compound. Input: COc1ccc2c(c1)[C@]13CCCC[C@@H]1[C@H](C2)N(C)CC3 [Dextromethorphan hydrobromide monohydrate]
Output: 0.998

Task: # query: fold change of Tryptamine concentration of entry `CN(C)C(CSS(=O)(=O)O)CSS(=O)(=O)O`
Output: 1.02

Task: Tell me the measured fold change of Tryptamine concentration of `O=[N+]([O-])/N=C1\NCCN1Cc1ccc(Cl)nc1` , please.
Output: 0.989

###

- Tested on: Escherichia coli IAI1
- TEST NAME: growth (OD595) fold change vs plate DMSO controls (fold change (ratio)); higher = more growth
- CONDITION: 20 µM; incubation time: 27 h, anaerobic, 37 °C
Structures can show the parent of a compound that is named as a salt.
EXPERIMENTAL READOUT: growth
# answer = number (no unit)

Here is how some molecules turned out for growth.
CC(C)(C)NCC(O)c1ccccc1Cl (stereo not drawn) [Tulobuterol Hydrochloride]: 0.972
CC(C)=CC1C(C(=O)OCc2cccc(Oc3ccccc3)c2)C1(C)C (stereo not drawn): 1.02
COc1ccc(-c2ccccc2)cc1NNC(=O)OC(C)C: 0.997
Nc1c(Cl)c(F)nc(OCC(=O)O)c1Cl: 1.01
CC(C)c1cccc(C(C)C)c1O: 1.01
CNC(=O)Oc1cccc(/N=C/N(C)C)c1: 0.992

Task: growth lookup needed for `CCOP(=S)(OCC)Oc1nc(Cl)c(Cl)cc1Cl` , thanks.
Output: 0.998

Task: // query growth value for entry `COc1ccc(C(=O)N2CCCC2=O)cc1`
Output: 0.978

Task: So what does the record say about growth for `CSc1nnc(C(C)(C)C)c(=O)n1N` ?
Output: 1.01

Task: Which growth is reported for this molecule? OCC(O)CCl (racemic)
Output: 1.02

Task: Returns the measured growth for the input molecule. Input: CN1[C@@H]2CC[C@H]1C[C@@H](OC1c3ccccc3CCc3ccccc31)C2 [Deptropine citrate]
Output: 1

Task: Endpoint output: growth of CCCC(Cn1cncn1)c1ccc(Cl)cc1Cl (stereo not drawn) . Value?
Output: 0.973

Task: Using the record for CC[N+]1(C)CCCC(OC(=O)C(O)(c2ccccc2)c2ccccc2)C1 (stereo not drawn) [Pipenzolate bromide] , report its growth.
Output: 0.997

Task: For `CC(C)N(C)S(=O)(=O)NC(=O)c1cc(-n2c(=O)cc(C(F)(F)F)n(C)c2=O)c(F)cc1Cl` , what is its reported growth?
Output: 0.981

Task: Could you tell me which growth is on file for COc1ccc2c(c1)[C@]13CCCC[C@@H]1[C@H](C2)N(C)CC3 [Dextromethorphan hydrobromide monohydrate] ?
Output: 0.975

Task: Need growth of `CS(=O)(=O)c1ccc(C(=O)C2C(=O)CCCC2=O)c([N+](=O)[O-])c1` , thanks.
Output: 1.02

Task: Which measured growth value corresponds to COc1ccc(C(=CC(=O)N2CCOCC2)c2ccc(Cl)cc2)cc1OC (mixture of isomers) ?
Output: 1.01

Task: Look at this molecule and give its reported growth. `O=C(Nc1ccccc1-c1ccc(Cl)cc1)c1cccnc1Cl`
Output: 1.02

Task: Suppose we examine the molecule `Nc1ccncc1` ; what growth value has been reported?
Output: 0.992

Task: Name the reported growth value associated with the molecule N[C@@H]1C[C@H]1c1ccccc1 [Tranylcypromine hydrochloride]
Output: 0.992

Task: Using the record for `C[C@]12C/C(=C/O)C(=O)C[C@@H]1CC[C@@H]1[C@@H]2CC[C@@]2(C)[C@H]1CC[C@]2(C)O` , report its growth.
Output: 1.01

Task: Consider the molecule c1ccc2c(c1)ccc1c3ccccc3sc21 [Benzo[b]naphtho[2,1-d]thiophene] and give its measured growth.
Output: 0.988

Task: Need growth of `COC(=O)NC(=S)Nc1ccccc1NC(=S)NC(=O)OC` , thanks.
Output: 1.02
